biological target: T1, human ROR1 on the surface of tumor cells (human, UniProt Q01973 30-937); experiment: FACS, MDA-MB-231 cells
T1 construct: whole, on cells; also called ROR1 on the cell surface; tumor cell ROR1
T1 sequence (Q01973 30-937): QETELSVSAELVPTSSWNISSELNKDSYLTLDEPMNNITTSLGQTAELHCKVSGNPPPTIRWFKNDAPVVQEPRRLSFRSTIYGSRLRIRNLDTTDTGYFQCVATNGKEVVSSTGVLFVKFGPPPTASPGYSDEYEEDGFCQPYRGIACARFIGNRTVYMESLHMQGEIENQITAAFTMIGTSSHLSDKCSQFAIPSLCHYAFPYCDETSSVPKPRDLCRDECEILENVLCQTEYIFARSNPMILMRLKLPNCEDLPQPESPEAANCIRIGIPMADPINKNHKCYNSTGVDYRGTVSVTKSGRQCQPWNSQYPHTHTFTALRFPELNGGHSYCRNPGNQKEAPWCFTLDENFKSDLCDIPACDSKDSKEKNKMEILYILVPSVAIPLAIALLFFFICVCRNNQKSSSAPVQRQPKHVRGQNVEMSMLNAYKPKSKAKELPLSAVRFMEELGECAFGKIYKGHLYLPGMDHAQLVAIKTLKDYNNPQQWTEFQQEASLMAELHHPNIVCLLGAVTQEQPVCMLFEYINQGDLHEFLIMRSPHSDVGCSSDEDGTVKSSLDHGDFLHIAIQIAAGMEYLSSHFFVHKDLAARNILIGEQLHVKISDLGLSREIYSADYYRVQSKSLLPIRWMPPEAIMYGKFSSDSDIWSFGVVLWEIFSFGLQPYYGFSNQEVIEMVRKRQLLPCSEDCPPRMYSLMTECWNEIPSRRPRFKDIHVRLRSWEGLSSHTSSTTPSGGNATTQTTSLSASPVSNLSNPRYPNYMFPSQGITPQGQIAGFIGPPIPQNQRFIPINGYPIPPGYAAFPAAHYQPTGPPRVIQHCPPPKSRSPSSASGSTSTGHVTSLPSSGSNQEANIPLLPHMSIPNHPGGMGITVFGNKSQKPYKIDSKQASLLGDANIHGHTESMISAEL
property-name: binding result

{"columns": ["binder", "result"],
 "data": [
  ["Hu005-45 (antibody, V domains shown, Humanized) VH: EVQLVESGGGLVKPGGSLRLSCAASGFTFNSYAMSWVRQTPEKGLEWVATISDAGSYTYYPDNEKGRFTISRDNAKNSLYLQMNSLRAEDTAIYYCVRGGYYYNLYAMDYWGQGTLVTVSS VL: DIVLTQSPDSLAVSLGERATINCKASQSVSFPGTSLMHWYQQKPGQQPKLLIYRASNLEAGVPDRFSGSGSRTDFTLTISSLQAEDVAVYYCQQSREYPWTFGGGTKVEIK", "binds"],
  ["Hu005-46 (antibody, V domains shown, Humanized) VH: EVQLVESGGGLVKPGGSLRLSCAASGFTFNSYAMSWVRQTPGKRLEWVATISDAGSYTYYPDNEKGRFTISRDNAKNSLYLQMNSLRAEDTAIYYCVRGGYYYNLYAMDYWGQGTLVTVSS VL: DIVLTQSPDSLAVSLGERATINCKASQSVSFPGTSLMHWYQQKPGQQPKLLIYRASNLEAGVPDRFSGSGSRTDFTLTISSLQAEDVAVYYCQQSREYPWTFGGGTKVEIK", "binds"]
]}
